Values compiled from PubChem BioAssay AID686978.

test name: qHTS for Inhibitors of human tyrosyl-DNA phosphodiesterase 1 (TDP1): qHTS in cells in absence of CPT; note: nearly all actives have a fitted effect of over 55% in size
measurement parameters: DT40 Tdp1-/- hTDP1 cells, no CPT, ATP luminescence, 48 h
Screen size: about 420,000 compounds; about 64,000 (15%) were called active. Roughly 27% stayed inconclusive and do not appear here. Not all results are given here.

compound	outcome
COc1ccc(-c2nnc(SCC(=O)Nc3cccnc3Cl)n2C)cc1	inactive
COc1ccc(OC)c(-c2csc(NC(=O)COC(=O)C3CC3)n2)c1	inactive
OC(COc1ccccc1)Cn1cc(Br)cn1 (stereo not drawn)	inactive

----------
test name: qHTS for Inhibitors of human tyrosyl-DNA phosphodiesterase 1 (TDP1): qHTS in cells in absence of CPT; note: nearly all actives have a fitted effect of over 55% in size
measurement parameters: DT40 Tdp1-/- hTDP1 cells, no CPT, ATP luminescence, 48 h
Hit rate of the full screen: of about 420,000 compounds, about 64,000 (15%) were called active. About 27% were inconclusive and are not listed. Calls come from the whole dose curve; as a rule, active = well fitted inhibition curve with a large enough effect; inconclusive = small, poorly fitted or top-dose-only effect; inactive = flat fitted curve, though single readings scatter. Not all results are given here.
Outcome codes: true (1) = active, false (0) = inactive

compound	discrete label
CS(=O)(=O)c1ccc2nc(NC(=O)c3ccc(N4CCCC4=O)cc3)sc2c1	false (0)
O=S(=O)(c1ccc(Br)cc1)N1CCC(c2nc3ccccc3[nH]2)CC1	true (1)
COCC(=O)Nc1ccc(Br)cc1	false (0)
COc1ccc(O)c(C=Nc2cc(C)on2)c1	false (0)
COc1ccc2oc(=O)c(C(=O)O)cc2c1	false (0)
COc1ccc(-c2onc(C)c2-c2ccc3c(c2)OCCO3)c(O)c1	true (1)
O=S1(=O)CCN(C2CCCCCCCCCCC2)CC1	true (1)
O=C(O)CCC(=O)Nc1nc2ccc([N+](=O)[O-])cc2s1	false (0)
O=C(COC(=O)c1ccccn1)NNC(=O)c1ccc([N+](=O)[O-])cc1	false (0)
Cc1nn(C)c(C)c1S(=O)(=O)N1CCc2ccccc21	false (0)
Cc1nc([N+](=O)[O-])cn1CC(=O)Nc1ccc2c(c1)OCO2	false (0)
O=C(C1CCCO1)N1CCC(c2nc3ccccc3[nH]2)CC1 (stereo unspecified)	false (0)
CC1CSc2nnc(CCc3ccccc3)n21 (stereo unspecified)	false (0)
Cc1cc(OC(=O)c2ccc(Cl)cc2)cc(=O)n1C	false (0)
CSc1ncccc1C(=O)OCc1ccc(Br)cc1	false (0)
O=C(O)C1CCN1C1CCCCC1 (stereo unspecified)	false (0)

----------
test name: qHTS for Inhibitors of human tyrosyl-DNA phosphodiesterase 1 (TDP1): qHTS in cells in absence of CPT; note: nearly all actives have a fitted effect of over 55% in size
measurement parameters: DT40 Tdp1-/- hTDP1 cells, no CPT, ATP luminescence, 48 h
Experimental: Human tyrosyl-DNA phosphodiesterase 1 (TDP1) is a novel repair gene, and we propose to use it as a new target for anticancer drug development. […] For the primary screen, Tdp1-/-;hTDP1 cells will be exposed to small molecules in the presence or absence of CPT, and their growth kinetics will be evaluated after 48 hours by measuring ATP activity. […] The hit compounds will then be evaluated in the presence or absence of CPT using Tdp1-/- cells. […]
Out of some 420,000 compounds screened, about 64,000 (15%) were called active. Inconclusive results (about 27%) are left out. The call rests on the fitted dose curve; in most records, active means well fitted inhibition curve with a large enough effect; inconclusive means small, poorly fitted or top-dose-only effect; inactive means flat fitted curve, though single readings scatter. Not all results are given here.
Outcomes: active, inactive

compound	discrete label
O=C(O)c1cccc(S(=O)(=O)Nc2ccc(O)cc2Sc2nc3ccccc3s2)c1	inactive
Cc1ccc(NC(=O)CN2C(=O)NC(C)(c3ccc(Cl)cc3)C2=O)c(Br)c1 (stereo not given)	inactive
COCc1c(C(=O)NC2CCCCC2)cnn1-c1nccc(-c2ccccc2OC)n1	inactive
NC(=O)C1CC=CCC1C(=O)OCC(Cl)=C(Cl)Cl (stereo not given)	inactive
CCc1cc2c(cc3c(=O)n(CC(=O)N4CCN(c5cc(Cl)ccc5C)CC4)nc(CC)n32)s1	inactive
CN1CCC(=NNC(=O)c2ccc(N(Cc3ccc(Cl)cc3)S(C)(=O)=O)cc2)CC1	inactive
COc1ccc(OC)c(CN2C(=O)CCC2(C)C(=O)NC2CCCCCC2)c1 (stereo not given)	inactive
C[C@H](NC(=O)NCCc1ccccc1)C(=O)O	inactive
Cc1ccccc1CNC(=O)CCCn1nc(C)c2sc3ccccc3c2c1=O	active
O=S(=O)(NCC1CCCO1)c1cnc(Cl)c(Cl)c1 (stereo not given)	inactive
Cc1nn(CCCC(=O)NCc2ccccc2Cl)c(=O)c2nccn12	inactive
Cc1cc(C(=O)Nc2c(C)n(C)n(-c3ccccc3)c2=O)cs1	inactive
CCN1CCN(C2CCCCC2NS(=O)(=O)c2ccc(Cl)cc2)CC1 (stereo not given)	inactive
COCCNC(=O)c1ccc(N2CCC3(CC2)OCCO3)c([N+](=O)[O-])c1	inactive
Cc1nnc(N(Cc2ccco2)C(=O)c2ccno2)s1	inactive
CCN(CC(=O)NCc1cccs1)S(=O)(=O)c1ccc(NC(C)=O)cc1	inactive
Cc1ccc(C)c(N2CCN(C(=O)Cn3nc(C)c4sc5ccccc5c4c3=O)CC2)c1	active
O=C(NCc1cccs1)C(=O)NCC1OCCCN1S(=O)(=O)c1ccc(F)cc1 (stereo not given)	inactive
O=C(c1cc(-c2ccc(Cl)s2)nc2ccccc12)N1CCOCC1	inactive
Cc1nc2c(-c3ccccc3)c(C)[nH]n2c(=O)c1Cl	inactive
Cn1cnc(C(F)(F)F)c1-c1ccc([N+](=O)[O-])cc1	inactive
O=C(NC(=S)Nc1ccc(NC(=O)c2cccs2)cc1)c1ccc([N+](=O)[O-])cc1	inactive
COc1ccc(C(=O)NC2CCCc3c2cnn3-c2cccc(C)c2C)c(OC)n1 (stereo not given)	active
COc1ccc(C(C(=O)NCc2ccccc2)N(Cc2cccs2)C(=O)c2cnccn2)cc1 (stereo not given)	active
COc1ccc(C(C)NC(=O)C2CCCC2)cc1 (stereo not given)	inactive
OCC1(CCOc2ccccc2)CCN(Cc2cn[nH]c2-c2ccccc2)CC1	inactive
CCCNC(=O)c1ccc(N2CCC3(CC2)CC(c2cccc(Br)c2)=NO3)c(NC(=O)c2ccco2)c1	active
CCc1nnc(NS(=O)(=O)c2ccc(NC(=S)NC(=O)c3cccs3)cc2)s1	inactive
Cc1cc(C(=O)NNC(=O)CCC2CCCCC2)c(C)o1	inactive
CC(C)N1C[C@@H](NCc2ccccc2O)C[C@H]1C(=O)N1CCN(c2cccc(C(F)(F)F)c2)CC1	active
CC(=O)Nc1ccc(S(=O)(=O)Nc2nccc(/C=C/c3ccccc3F)n2)cc1	inactive
CCOc1ccccc1Nc1ccc2nonc2c1[N+](=O)[O-]	inactive
Cc1cccc(C)c1NC(=O)CSc1nc2c([nH]1)c(=O)n(C)c(=O)n2C	inactive
Cc1nn(C(C)C(=O)NCCc2ccccc2)c(=O)c2c1sc1ccccc12 (stereo not given)	active
Cc1c(NC(=O)c2cc(=O)c3ccccc3o2)c(=O)n(-c2ccccc2)n1C	inactive
COc1ccccc1OCC(=O)OCn1c(SC)nnc(C)c1=O	inactive
CSCc1nnc(NC(=O)c2ccc(S(=O)(=O)N3CCCCC3C)cc2)o1 (stereo not given)	active
COC(=O)c1ccc(N2CCOCC2)c(NC(=O)c2ccc(Br)o2)c1	inactive
CCc1nnc(NC(=O)c2ccc(S(=O)(=O)NC3CCCCC3)cc2)s1	inactive
CCN1CCC(=NNC(=O)c2ccc(C)c([N+](=O)[O-])c2)CC1	inactive

----------
test name: qHTS for Inhibitors of human tyrosyl-DNA phosphodiesterase 1 (TDP1): qHTS in cells in absence of CPT; note: nearly all actives have a fitted effect of over 55% in size; note: potency is the fitted concentration of half-maximal effect
measurement parameters: DT40 Tdp1-/- hTDP1 cells, no CPT, ATP luminescence, 48 h
Among all 420,000 compounds or so, about 64,000 (15%) were called active. Another 27% or so got no clear call; they are omitted. Only a sample is shown.

molecule	Potency
O=C(Nc1c(-c2ccccc2)nc2c(Br)cc(Br)cn12)c1ccco1	inactive
Cc1cccc(NC(=O)c2ccc3nsnc3c2)c1C	inactive
Nn1c(SCc2ccccc2)nnc1C1CCCCC1	inactive
COc1cc(C(=O)NCc2ccncc2)cc(Br)c1OCc1ccccc1	23.1 µM (active)
Cc1cccn2c(CN(C)C3CCCc4ccccc43)c(C(=O)N3CCOCC3)nc12 (configuration not stated)	18.4 µM (active)
c1ccc(Cc2c(-c3ccco3)nc3c4ccccc4ccn23)cc1	20.6 µM (active)
CSc1nc(-c2ccco2)nn1C(=O)CCc1ccccc1	inactive
CN1CCN(Cc2c(C(=O)N3CCc4ccccc4C3)nc3ccc(Cl)cn23)CC1	inactive
CCO[C@@H]1OC(C(=O)N2CCOCC2)=C[C@H](C)[C@H]1CCCO	inactive
O=C(Cc1ccc(Cl)cc1)NC1CCS(=O)(=O)C1 (configuration not stated)	inactive
COc1cc(OC)c(NC(=O)c2ccc(Br)o2)cc1Cl	inactive
Cc1ccc2cc(C)c(N3CCN(c4ccc(F)cc4)CC3)nc2c1	inactive
C[C@H](NS(=O)(=O)c1ccc(Cl)cc1)C(=O)OCC(=O)N1CCOCC1	inactive
Cc1ccc(-c2nnc3ccc(SCC(N)=O)nn23)cc1	inactive
C[n+]1ccc(C(=O)NCc2ccccc2)cc1	inactive
CC(=O)c1c(N2CCN(c3ccc(F)cc3)CC2)nc(=S)n(-c2ccccc2)c1C	20.6 µM (active)
Cc1ccc(NC(=O)C(c2ccccc2)N2CCN(C(=O)c3ccco3)CC2)cc1 (configuration not stated)	inactive
